target: Delta-type opioid receptor (Homo sapiens, UniProt P41143); assay: Agonist activity at DOP (unknown origin) expressed in SH-SY5Y cell membranes co-expressing beta-arrestin2-RGFP protein assessed as induction of beta-arrestin2 activation incubated for 15 mins by BRET assay; assay type: cell-based
Sequence (P41143 whole entry): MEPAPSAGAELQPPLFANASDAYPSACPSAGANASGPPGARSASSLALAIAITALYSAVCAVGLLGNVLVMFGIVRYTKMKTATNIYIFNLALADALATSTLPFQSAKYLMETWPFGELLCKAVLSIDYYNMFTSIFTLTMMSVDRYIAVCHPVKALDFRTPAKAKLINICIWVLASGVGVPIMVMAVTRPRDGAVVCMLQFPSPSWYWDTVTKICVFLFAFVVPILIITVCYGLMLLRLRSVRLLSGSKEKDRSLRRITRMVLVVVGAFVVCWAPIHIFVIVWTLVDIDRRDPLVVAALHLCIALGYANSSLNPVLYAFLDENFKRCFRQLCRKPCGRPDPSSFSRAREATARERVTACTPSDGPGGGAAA
Non-standard residues stand in square brackets, D forms with d. Residues, ends and D or L forms follow the SMILES beside them. *: point of attachment. X1 = CCCCCCCCCCCCCCCC(=O)NCCCN1C(=O)CC(*)C1=O
EC50 by entry:
reported property: EC50 (nM)

# compound, subject of test, measured number
measured = [
    ("CCCCCCCCCCCCCCCC(=O)NCCCN1C(=O)CC(SC[C@H](NC(=O)[C@H](CC(=O)O)NC(=O)[C@H](CCSC)NC(=O)[C@H](CC(C)C)NC(=O)[C@H](Cc2c[nH]cn2)NC(=O)[C@H](Cc2ccccc2)NC(=O)[C@@H](CCSC)NC(=O)[C@@H](N)Cc2ccc(O)cc2)C(N)=O)C1=O (some centres undefined) (H-Y[dM]FHLMDC(X1)-NH2)", "Delta-type opioid receptor (Homo sapiens, UniProt P41143)", 22.4),
    ("CCCCCCCCCCCCCCCC(=O)NCCCN1C(=O)CC(SC[C@H](NC(=O)[C@H](CC(C)C)NC(=O)[C@H](Cc2ccccc2)NC(=O)CNC(=O)CNC(=O)[C@@H](N)Cc2ccc(O)cc2)C(N)=O)C1=O (some centres undefined) (H-YGGFLC(X1)-NH2)", "Delta-type opioid receptor (Homo sapiens, UniProt P41143)", 132),
    ("CCCCCCCCCCCCCCCC(=O)NCCCN1C(=O)CC(SC[C@H](NC(=O)[C@H](CO)NC(=O)[C@@H]2CCCN2C(=O)[C@H](Cc2ccc(O)cc2)NC(=O)CNC(=O)[C@H](Cc2ccccc2)NC(=O)[C@@H](C)NC(=O)[C@@H](N)Cc2ccc(O)cc2)C(N)=O)C1=O (some centres undefined)", "Delta-type opioid receptor (Homo sapiens, UniProt P41143)", 617),
    ("CSCC[C@H](NC(=O)[C@H](CC(C)C)NC(=O)[C@H](Cc1c[nH]cn1)NC(=O)[C@H](Cc1ccccc1)NC(=O)[C@@H](CCSC)NC(=O)[C@@H](N)Cc1ccc(O)cc1)C(=O)N[C@@H](CC(=O)O)C(=O)O (H-Y[dM]FHLMD-OH)", "Delta-type opioid receptor (Homo sapiens, UniProt P41143)", 14.8),
]

----------
target: Nociceptin receptor (Homo sapiens, UniProt P41146); test: Agonist activity at NOP (unknown origin) expressed in HEK293 cell membranes co-expressing Gbeta1-RGFP protein assessed as induction of G protein activation incubated for 15 mins by BRET assay; format: cell-based
Sequence (P41146 whole entry): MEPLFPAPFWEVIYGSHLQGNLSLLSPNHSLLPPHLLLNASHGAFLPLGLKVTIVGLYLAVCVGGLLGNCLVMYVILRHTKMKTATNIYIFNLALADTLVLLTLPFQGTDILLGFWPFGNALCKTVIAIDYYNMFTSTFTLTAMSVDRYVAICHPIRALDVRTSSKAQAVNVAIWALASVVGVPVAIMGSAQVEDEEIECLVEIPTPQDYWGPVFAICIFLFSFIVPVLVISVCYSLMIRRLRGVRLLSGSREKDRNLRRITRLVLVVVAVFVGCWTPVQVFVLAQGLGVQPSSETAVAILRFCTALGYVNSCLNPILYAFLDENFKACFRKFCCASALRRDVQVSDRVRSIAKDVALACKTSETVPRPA
Starred links: 1 amine or outer side, 2 acyl side, 3 side chain; linkers in the order of their positions; H or OH if unused. Non-standard residues stand in square brackets, D forms with d. Residues, ends and D or L forms follow the SMILES beside them. *: point of attachment. X1 = CCCCCCCCCCCCCCCC(=O)NCCCN1C(=O)CC(*)C1=O; X3 = N[C@@H](Cc1ccccc1)CN(CC(=O)[*:2])[*:1]
reported property: EC50 (nM)

# compound, measured number
rows = [
    ("CCCCCCCCCCCCCCCC(=O)NCCCN1C(=O)CC(SC[C@H](NC(=O)[C@H](CCCNC(=N)N)NC(=O)[C@H](C)NC(=O)[C@H](CO)NC(=O)[C@H](CCCCN)NC(=O)[C@H](CCCNC(=N)N)NC(=O)[C@H](C)NC(=O)CNC(=O)[C@@H](NC(=O)[C@H](Cc2ccccc2)NC(=O)CNC(=O)CNC(=O)[C@@H](N)Cc2ccccc2)[C@@H](C)O)C(N)=O)C1=O (stereo not given in full) (H-FGGFTGARKSARC(X1)-NH2)", 1.26),
    ("CCCCCCCCCCCCCCCC(=O)NCCCN1C(=O)CC(SC[C@H](NC(=O)[C@H](C)NC(=O)[C@H](CO)NC(=O)[C@H](CCCCN)NC(=O)[C@H](CCCNC(=N)N)NC(=O)[C@H](C)NC(=O)CNC(=O)[C@@H](NC(=O)[C@H](Cc2ccccc2)NC(=O)CNC(=O)CNC(=O)[C@@H](N)Cc2ccccc2)[C@@H](C)O)C(=O)N[C@@H](CCCCN)C(N)=O)C1=O (stereo not given in full) (H-FGGFTGARKSAC(X1)K-NH2)", 0.525),
    ("C[C@H](NC(=O)CNC(=O)[C@@H](NC(=O)[C@H](Cc1ccccc1)NC(=O)CNC(=O)CNC[C@@H](N)Cc1ccccc1)[C@@H](C)O)C(=O)N[C@@H](CCCN=C(N)N)C(=O)N[C@@H](CCCCN)C(=O)N[C@@H](CO)C(=O)N[C@@H](C)C(=O)N[C@@H](CCCN=C(N)N)C(=O)N[C@@H](CCCCN)C(N)=O (H-[X3]GFTGARKSARK-NH2)", 8.91),
    ("CCCCCCCCCCCCCCCC(=O)NCCCN1C(=O)CC(SC[C@H](NC(=O)[C@H](CO)NC(=O)[C@H](CCCCN)NC(=O)[C@H](CCCNC(=N)N)NC(=O)[C@H](C)NC(=O)CNC(=O)[C@@H](NC(=O)[C@H](Cc2ccccc2)NC(=O)CNC(=O)CNC(=O)[C@@H](N)Cc2ccccc2)[C@@H](C)O)C(=O)N[C@@H](CCCNC(=N)N)C(=O)N[C@@H](CCCCN)C(N)=O)C1=O (stereo not given in full) (H-FGGFTGARKSC(X1)RK-NH2)", 0.437),
    ("CCCCCCCCCCCCCCCC(=O)NCCCN1C(=O)CC(SC[C@H](NC(=O)[C@H](CCCCN)NC(=O)[C@H](CCCNC(=N)N)NC(=O)[C@H](C)NC(=O)CNC(=O)[C@@H](NC(=O)[C@H](Cc2ccccc2)NC(=O)CNC(=O)CNC(=O)[C@@H](N)Cc2ccccc2)[C@@H](C)O)C(=O)N[C@@H](C)C(=O)N[C@@H](CCCNC(=N)N)C(=O)N[C@@H](CCCCN)C(N)=O)C1=O (stereo not given in full) (H-FGGFTGARKC(X1)ARK-NH2)", 0.288),
]

----------
molecular target: Nociceptin receptor (Homo sapiens, UniProt P41146); assay: Bias factor, selectivity for agonist activity at NOP (unknown origin) expressed in HEK293 cell membranes co-expressing beta-arrestin2-RGFP protein assessed as induction of beta-arrestin2 activation to agonist activity at NOP (unknown origin) expressed in HEK293 cell membranes co-expressing Gbeta1-RGFP protein assessed as induction of G protein activation; assay type: cell-based
Selectivity Index by entry:
reported property: Selectivity Index

# substance, subject of test, reported property, measured number
measured = [
    ("H-FGAFTGARKSARK-NH2", "Nociceptin receptor (Homo sapiens, UniProt P41146)", "Selectivity Index", -0.21),
    ("H-FGGFAGARKSARK-NH2", "Nociceptin receptor (Homo sapiens, UniProt P41146)", "Selectivity Index", 0.4),
    ("H-FGGFTAARKSARK-NH2", "Nociceptin receptor (Homo sapiens, UniProt P41146)", "Selectivity Index", 0.04),
    ("H-FGGFVGARKSARK-NH2", "Nociceptin receptor (Homo sapiens, UniProt P41146)", "Selectivity Index", 0.09),
]

----------
target: Delta-type opioid receptor (Homo sapiens, UniProt P41143); test: Agonist activity at DOP (unknown origin) expressed in SH-SY5Y cell membranes co-expressing Gbeta1-RGFP protein assessed as induction of G protein activation incubated for 15 mins by BRET assay; assay type: cell-based
pEC50: −log10 of the molar value. Non-standard residues stand in square brackets, D forms with d. Residues, ends and D or L forms follow the SMILES beside them. *: point of attachment. X1 = CCCCCCCCCCCCCCCC(=O)NCCCN1C(=O)CC(*)C1=O
reported property: pEC50

# molecule, measured number
rows = [
    ("CSCC[C@H](NC(=O)[C@H](CC(C)C)NC(=O)[C@H](Cc1c[nH]cn1)NC(=O)[C@H](Cc1ccccc1)NC(=O)[C@@H](CCSC)NC(=O)[C@@H](N)Cc1ccc(O)cc1)C(=O)N[C@@H](CC(=O)O)C(=O)O (H-Y[dM]FHLMD-OH)", 7.58),
    ("CCCCCCCCCCCCCCCC(=O)NCCCN1C(=O)CC(SC[C@H](NC(=O)[C@H](CC(=O)O)NC(=O)[C@H](CCSC)NC(=O)[C@H](CC(C)C)NC(=O)[C@H](Cc2c[nH]cn2)NC(=O)[C@H](Cc2ccccc2)NC(=O)[C@@H](CCSC)NC(=O)[C@@H](N)Cc2ccc(O)cc2)C(N)=O)C1=O (some centres undefined) (H-Y[dM]FHLMDC(X1)-NH2)", 8.69),
    ("CCCCCCCCCCCCCCCC(=O)NCCCN1C(=O)CC(SC[C@H](NC(=O)[C@H](CC(C)C)NC(=O)[C@H](Cc2ccccc2)NC(=O)CNC(=O)CNC(=O)[C@@H](N)Cc2ccc(O)cc2)C(N)=O)C1=O (some centres undefined) (H-YGGFLC(X1)-NH2)", 8.09),
    ("CCCCCCCCCCCCCCCC(=O)NCCCN1C(=O)CC(SC[C@H](NC(=O)[C@H](CO)NC(=O)[C@@H]2CCCN2C(=O)[C@H](Cc2ccc(O)cc2)NC(=O)CNC(=O)[C@H](Cc2ccccc2)NC(=O)[C@@H](C)NC(=O)[C@@H](N)Cc2ccc(O)cc2)C(N)=O)C1=O (some centres undefined)", 7.23),
]
